target: Alpha-2C adrenergic receptor (Homo sapiens, UniProt P18825)
Sequence (P18825 whole entry): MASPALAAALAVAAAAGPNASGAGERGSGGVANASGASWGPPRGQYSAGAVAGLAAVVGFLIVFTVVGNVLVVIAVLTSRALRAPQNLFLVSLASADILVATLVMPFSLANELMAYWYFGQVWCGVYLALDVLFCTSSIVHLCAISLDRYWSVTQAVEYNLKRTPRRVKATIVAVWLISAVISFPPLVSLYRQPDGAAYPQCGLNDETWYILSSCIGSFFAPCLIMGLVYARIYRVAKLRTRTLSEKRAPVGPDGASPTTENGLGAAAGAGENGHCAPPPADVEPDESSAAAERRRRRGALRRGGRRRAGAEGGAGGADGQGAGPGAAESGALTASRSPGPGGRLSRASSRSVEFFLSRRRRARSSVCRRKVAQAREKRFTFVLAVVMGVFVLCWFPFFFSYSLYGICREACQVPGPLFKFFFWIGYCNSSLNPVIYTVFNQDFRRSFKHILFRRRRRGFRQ
protocolNotes: Displacement of [3H]RS79948-197 from human recombinant adrenergic Alpha-2C receptor expressed in CHO cells
measuredProperty: Ki (nM)
Please reply with the bare figure in nM and do not write the unit itself.

Asked: Entry c1ccc(-c2cccc3c2OC(C2=NCCN2)CO3)cc1 (stereo not given) , system Alpha-2C adrenergic receptor (Homo sapiens, UniProt P18825): what Ki was measured?
Given back: 692

Asked: // lookup Ki | system=Alpha-2C adrenergic receptor (Homo sapiens, UniProt P18825) | key= c1ccc(-c2cccc3c2OCC(C2=NCCN2)O3)cc1 (stereo not given)
Given back: 832

Asked: Please state recorded Ki (tested on Alpha-2C adrenergic receptor (Homo sapiens, UniProt P18825)) of c1ccc(-c2ccc3c(c2)OC(C2=NCCN2)CO3)cc1 (stereo not given)
Given back: 1260

Asked: Observed Ki on Alpha-2C adrenergic receptor (Homo sapiens, UniProt P18825) for CO/N=C/c1ccccc1OC(C)C1=NCCN1 (stereo not given) , please.
Given back: 3090

Asked: Query the reported Ki for Alpha-2C adrenergic receptor (Homo sapiens, UniProt P18825); item: CC(Oc1ccccc1/C=N/OCc1ccccc1)C1=NCCN1 (stereo not given)
Given back: 676

Asked: Recall the recorded Ki for CC(Oc1ccccc1C1CCCC1)C1=NCCN1 (stereo not given) with Alpha-2C adrenergic receptor (Homo sapiens, UniProt P18825) and state it.
Given back: 26.9

Asked: Look up Ki with Alpha-2C adrenergic receptor (Homo sapiens, UniProt P18825) for this molecule: CCO/N=C/c1ccccc1OC(C)C1=NCCN1 (stereo not given)
Given back: 339

Asked: Notebook: pull reported Ki for Alpha-2C adrenergic receptor (Homo sapiens, UniProt P18825), entry CC(Oc1ccccc1C1CCCCC1)C1=NCCN1 (stereo not given)
Given back: 77.6

Asked: Return Ki measured with Alpha-2C adrenergic receptor (Homo sapiens, UniProt P18825) given this molecule: c1ccc(OC(C2=NCCN2)c2ccccc2)cc1 (stereo not given)
Given back: 64.6

Asked: Find Ki (Alpha-2C adrenergic receptor (Homo sapiens, UniProt P18825)) for the entry CC(Oc1ccccc1)C1=NCCN1 (stereo not given)
Given back: 263

Asked: Item c1ccc(-c2ccccc2OC(C2=NCCN2)c2ccccc2)cc1 (stereo not given) with Alpha-2C adrenergic receptor (Homo sapiens, UniProt P18825) - Ki?
Given back: 204

Asked: Field: Ki (Alpha-2C adrenergic receptor (Homo sapiens, UniProt P18825)). Entry: COC1(C2=NCCN2)COc2cccc(-c3ccccc3)c2O1 (stereo not given)
Given back: 245

Asked: Lookup: Ki / Alpha-2C adrenergic receptor (Homo sapiens, UniProt P18825) / c1ccc(-c2ccc3c(c2)OCC(C2=NCCN2)O3)cc1 (stereo not given)
Given back: 1580

Asked: Recorded Ki for CC(Oc1ccccc1/C=N/O)C1=NCCN1 (stereo not given) with Alpha-2C adrenergic receptor (Homo sapiens, UniProt P18825), please?
Given back: 912

Asked: Missing value: Ki, Alpha-2C adrenergic receptor (Homo sapiens, UniProt P18825), entry C=CCc1ccccc1OC(C)C1=NCCN1 (stereo not given) [ALLYPHENYLINE] . Fill in?
Given back: 85.1

From: ChEMBL document CHEMBL1155080
